// reported Stability for each item listed
- System: Liver
- protocol_description: Metabolic stability in human liver microsomes assessed as parent compound remaining after 10 mins
- Format: ADME, microsome
- reported_conditions: microsomes, 10 min
Numeric answer only, unit % assumed.

Requested read-out: Stability. Entry: O=C(CC1(c2ccc(F)cc2)C2CC3CC1CC(C2)C3O)N1CC(O)C1 (stereo in doubt)
85

Requested read-out: Stability. Entry: O=C(CC1(c2ccccc2)C2CC3CC1CC(C2)C3O)N1CC(O)C1 (stereo in doubt; form 2)
91

Requested read-out: Stability. Entry: O=C(CC1(c2ccc(F)cc2)C2CC3CC1CC(C2)C3O)N1CC(O)C1 (single isomer, unassigned; enantiomer 2)
90

Requested read-out: Stability. Entry: O=C(CC1(c2ccccc2)C2CC3CC1CC(C2)C3O)N1CC(O)C1 (stereo in doubt; form 1)
89

----------
- system: Cytochrome P450 2C8 (Homo sapiens, UniProt P10632)
- Sequence (P10632 whole entry): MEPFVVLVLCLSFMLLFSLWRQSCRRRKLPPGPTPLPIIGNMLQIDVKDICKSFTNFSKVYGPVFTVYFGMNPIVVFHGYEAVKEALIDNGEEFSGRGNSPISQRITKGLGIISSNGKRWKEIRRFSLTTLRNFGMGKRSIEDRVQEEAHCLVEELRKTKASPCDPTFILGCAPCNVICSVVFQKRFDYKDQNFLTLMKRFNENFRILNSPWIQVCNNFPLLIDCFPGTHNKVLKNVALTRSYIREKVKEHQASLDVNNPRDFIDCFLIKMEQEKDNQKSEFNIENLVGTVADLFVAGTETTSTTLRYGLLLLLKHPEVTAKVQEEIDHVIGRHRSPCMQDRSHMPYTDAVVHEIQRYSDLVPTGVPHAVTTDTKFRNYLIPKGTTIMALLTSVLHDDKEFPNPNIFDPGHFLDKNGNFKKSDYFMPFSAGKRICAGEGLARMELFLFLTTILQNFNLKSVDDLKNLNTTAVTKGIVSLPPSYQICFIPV
pIC50: −log10 of the molar value.
quantity: pIC50

For Cytochrome P450 2C8 (Homo sapiens, UniProt P10632), provide pIC50 of O=C(CC1(c2ccccc2)C2CC3CC1CC(C2)C3O)N1CC(O)C1 (stereo in doubt; form 2) please.
< 4.40

----------
- protocol_description: in vivo
- reported_conditions: mouse, adipose tissue / plasma, iv, 5 mg/kg
quantity: Kp
Answer with the value's number alone.

Requested read-out: Kp. Entry: O=C(CC1(c2ccccc2)C2CC3CC1CC(C2)C3O)N1CC(O)C1 (stereo in doubt; form 2)
0.15

----------
- protocol_description: Aqueous solubility of the compound in pH 6.5 solution
- Assay type: physicochemical
- reported_conditions: pH 6.5, pH 6.5
quantity: solubility
Please report the result as a number followed by the unit.

Requested read-out: solubility. Entry: O=C(CC1(c2ccccc2)C2CC3CC1CC(C2)C3O)N1CC(O)C1 (stereo in doubt; form 2)
1800 µg/mL

----------
- protocol_description: Volume of distribution at steady state in cynomolgus monkey at 1 mg/kg, iv
- Format: ADME, organism-based, Macaca fascicularis
- reported_conditions: in vivo, read-out: Vdss
quantity: Vd (L/kg)
Numeric answer only, unit L/kg assumed.

Requested read-out: Vd. Entry: O=C(CC1(c2ccccc2)C2CC3CC1CC(C2)C3O)N1CC(O)C1 (stereo in doubt; form 2)
4.2

----------
- protocol_description: Oral bioavailability in dog at 2 mg/kg
- Format: ADME, organism-based, Canis lupus familiaris
- reported_conditions: in vivo
quantity: bioavailability (%)
Numeric answer only, unit % assumed.

Requested read-out: bioavailability. Entry: O=C(CC1(c2ccccc2)C2CC3CC1CC(C2)C3O)N1CC(O)C1 (stereo in doubt; form 2)
72

----------
- protocol_description: Apparent elimination half life in mouse at 5 mg/kg, iv
- Format: ADME, organism-based
- reported_conditions: in vivo, read-out: betat1/2(app) (converted)
quantity: half-life (h)
Numeric answer only, unit h assumed.

Requested read-out: half-life. Entry: O=C(CC1(c2ccccc2)C2CC3CC1CC(C2)C3O)N1CC(O)C1 (stereo in doubt; form 2)
2

----------
- protocol_description: Oral bioavailability in mouse at 10 mg/kg
- Type: ADME, organism-based
- reported_conditions: in vivo
quantity: bioavailability (%)
Numeric answer only, unit % assumed.

Requested read-out: bioavailability. Entry: O=C(CC1(c2ccccc2)C2CC3CC1CC(C2)C3O)N1CC(O)C1 (stereo in doubt; form 2)
56

----------
// reported Emax for each item listed
- system: PXR (Homo sapiens)
- Sequence (O75469 whole entry): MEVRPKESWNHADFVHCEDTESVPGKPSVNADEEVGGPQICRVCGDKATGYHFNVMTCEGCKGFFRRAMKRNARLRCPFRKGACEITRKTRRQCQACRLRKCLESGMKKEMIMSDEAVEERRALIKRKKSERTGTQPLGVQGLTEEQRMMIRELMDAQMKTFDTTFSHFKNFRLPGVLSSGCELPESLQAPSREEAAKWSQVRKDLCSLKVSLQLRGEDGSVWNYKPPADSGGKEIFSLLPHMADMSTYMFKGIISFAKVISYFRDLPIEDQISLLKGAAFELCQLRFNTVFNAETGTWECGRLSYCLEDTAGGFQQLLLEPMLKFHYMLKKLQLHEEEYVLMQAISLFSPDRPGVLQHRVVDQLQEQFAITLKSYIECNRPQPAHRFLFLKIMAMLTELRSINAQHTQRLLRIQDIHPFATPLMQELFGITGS
- protocol_description: Activation of PXR (unknown origin) relative to control
- Type: ADME

compound | observed_value
O=C(CC1(c2ccc(F)cc2)C2CC3CC1CC(C2)C3O)N1CC(O)C1 (racemic) | 4%

Now turn to the next compound.
Requested read-out: Emax. Entry: O=C(CC1(c2ccc(F)cc2)C2CC3CC(C2)CC1C3)N1CC(O)C1 (configuration not stated)
37%

----------
- system: UniProtKB P05177
- Sequence (P05177 whole entry): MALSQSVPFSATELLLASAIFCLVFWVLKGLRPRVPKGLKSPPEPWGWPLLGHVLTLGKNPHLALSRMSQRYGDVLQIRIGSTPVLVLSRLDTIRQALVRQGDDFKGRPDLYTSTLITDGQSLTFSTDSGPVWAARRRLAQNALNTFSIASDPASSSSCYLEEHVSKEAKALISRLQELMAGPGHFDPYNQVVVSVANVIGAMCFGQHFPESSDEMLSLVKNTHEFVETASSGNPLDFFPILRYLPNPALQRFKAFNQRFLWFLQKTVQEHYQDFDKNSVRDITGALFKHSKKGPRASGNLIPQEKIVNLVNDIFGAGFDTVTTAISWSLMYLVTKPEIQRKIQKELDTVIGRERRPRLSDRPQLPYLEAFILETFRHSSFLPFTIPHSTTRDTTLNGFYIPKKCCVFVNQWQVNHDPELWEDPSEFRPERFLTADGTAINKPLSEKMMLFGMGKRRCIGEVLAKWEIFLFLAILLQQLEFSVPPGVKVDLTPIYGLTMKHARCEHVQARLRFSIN
quantity: IC50

Requested read-out: IC50. Entry: O=C(CC1(c2ccccc2)C2CC3CC1CC(C2)C3O)N1CC(O)C1 (stereo in doubt; form 2)
> 40 µM

----------
- Test system: Rattus norvegicus
- protocol_description: Apparent elimination half life in rat at […], iv
- Assay type: ADME, organism-based
- reported_conditions: in vivo
quantity: betat1/2(app) (h)
Numeric answer only, unit h assumed.

For Rattus norvegicus, provide betat1/2(app) of O=C(CC1(c2ccccc2)C2CC3CC1CC(C2)C3O)N1CC(O)C1 (stereo in doubt; form 2) please.
3

----------
- protocol_description: Metabolic stability in mouse liver microsomes assessed as UGT-mediated glucuronidation of compound by measuring half life in presence of UDPGA
- Format: ADME
quantity: half-life

compound | observed_value
Fc1ccc(C2(Cc3nnn[nH]3)C3CC4CC(C3)CC2C4)cc1 (stereo not drawn) | > 1 h
NC(=O)CC1(c2ccc(F)cc2)C2CC3CC(C2)CC1C3 (stereo not drawn) | > 2 h

Now turn to the next compound.
Requested read-out: half-life. Entry: O=C(CC1(c2ccccc2)C2CC3CC1CC(C2)C3O)N1CC(O)C1 (stereo in doubt; form 2)
> 3.33 h

----------
- protocol_description: Metabolic stability in rat liver microsomes assessed as parent compound remaining after 10 mins
- Format: ADME, microsome
- reported_conditions: liver microsomes, read-out: Stability
# label = label 1 if remaining at 10 min < 50% else label 0

Solved entries (count: 8):
compound | classification
NC(=O)C1C2CC3CC1CC(C2)C3(CC(=O)N1CC(O)C1)c1ccc(F)cc1 (racemic) | label 0
Cc1cccc(C2(CC(=O)N3CC(O)C3)C3CC4CC2CC(C3)C4O)c1 (racemic) | label 1
O=C(CC1(c2ccc(-c3ccc(F)cc3)cc2)C2CC3CC1CC(C2)C3O)N1CC(O)C1 (racemic) | label 1
O=C(CC1(C2CCCCC2)C2CC3CC1CC(C2)C3O)N1CC(O)C1 (racemic) | label 1
CC1(O)C2CC3CC1CC(C2)C3(CC(=O)N1CC(O)C1)c1ccc(F)cc1 (racemic) | label 1
CC1(O)C2CC3CC(C2)C(CC(=O)N2CC(O)C2)(c2ccc(F)cc2)C1C3 (racemic) | label 1
O=C(CC1(c2cccc(Cl)c2)C2CC3CC1CC(C2)C3O)N1CC(O)C1 (racemic) | label 1
O=C(CC1(c2cccnc2)C2CC3CC1CC(C2)C3O)N1CC(O)C1 (racemic) | label 0

Does the reported remaining at 10 min of the following compound sit strictly below 50%? O=C(CC1(c2ccc(C(F)(F)F)cc2)C2CC3CC1CC(C2)C3O)N1CC(O)C1 (racemic)
label 1

Does the reported remaining at 10 min of the following compound sit strictly below 50%? Cc1ccccc1C1(CC(=O)N2CC(O)C2)C2CC3CC1CC(C2)C3O (racemic)
label 1

Does the reported remaining at 10 min of the following compound sit strictly below 50%? N#Cc1ccc(C2(CC(=O)N3CC(O)C3)C3CC4CC2CC(C3)C4O)cc1 (racemic)
label 0

Does the reported remaining at 10 min of the following compound sit strictly below 50%? O=C(CC1(c2ccc(F)cc2)C2CC3CC(C2)CC1(O)C3)N1CC(O)C1 (racemic)
label 1

Does the reported remaining at 10 min of the following compound sit strictly below 50%? O=C(CC1(c2ccc(-c3ccncc3)cc2)C2CC3CC1CC(C2)C3O)N1CC(O)C1 (racemic)
label 0

Does the reported remaining at 10 min of the following compound sit strictly below 50%? CS(=O)(=O)c1ccc(C2(CC(=O)N3CC(O)C3)C3CC4CC2CC(C3)C4O)cc1 (racemic)
label 0

Does the reported remaining at 10 min of the following compound sit strictly below 50%? N#CC1C2CC3CC1CC(C2)C3(CC(=O)N1CC(O)C1)c1ccc(F)cc1 (racemic)
label 1

Does the reported remaining at 10 min of the following compound sit strictly below 50%? O=C(CC1(c2ccccn2)C2CC3CC1CC(C2)C3O)N1CC(O)C1 (racemic)
label 0

----------
- protocol_description: Total plasma clearance in mouse at 5 mg/kg, iv
- Assay type: ADME, organism-based
quantity: clearance (mL/min/kg)
Numeric answer only, unit mL/min/kg assumed.

Requested read-out: clearance. Entry: O=C(CC1(c2ccccc2)C2CC3CC1CC(C2)C3O)N1CC(O)C1 (stereo in doubt; form 2)
50
